All values here come from ChEMBL document CHEMBL3997761.

- Tested on: HL-60
- assay remarks: Antiproliferative activity against human HL60 cells after 48 hrs by MTT assay
- Assay type: functional, cell-based
- reported conditions: HL-60, 48 h
measure: IC50

QUERY: Please list IC50 recorded for the compound "N=C(NCCC[C@H](NC(=O)c1cc2c(cn1)[nH]c1ccccc12)C(=O)OCc1ccccc1)N[N+](=O)[O-]"
RESULT: 15.3 to 74.1 µM

###

- Tested on: Plasma
- assay remarks: Induction of nanoparticle formation in rat plasma assessed as nanoparticle size at 10 uM by atomic force microscopy
- Format: cell-free
measure: Activity

QUERY: Please list Activity recorded for the compound "N=C(NCCC[C@H](NC(=O)c1cc2c(cn1)[nH]c1ccccc12)C(=O)OCc1ccccc1)N[N+](=O)[O-]"
RESULT: 102 to 109 nm

###

- Tested on: Plasma
- assay remarks: Induction of nanoparticle formation in rat plasma assessed as nanoparticle size at 0.1 uM by atomic force microscopy
- Assay type: cell-free
measure: Activity

QUERY: Please list Activity recorded for the compound "N=C(NCCC[C@H](NC(=O)c1cc2c(cn1)[nH]c1ccccc12)C(=O)OCc1ccccc1)N[N+](=O)[O-]"
RESULT: 68.6 to 78.4 nm

###

- System: Plasma
- assay remarks: Induction of nanoparticle formation in rat plasma assessed as nanoparticle size at 1 uM by atomic force microscopy
- Assay type: cell-free
measure: Activity

QUERY: Please list Activity recorded for the molecule "N=C(NCCC[C@H](NC(=O)c1cc2c(cn1)[nH]c1ccccc12)C(=O)OCc1ccccc1)N[N+](=O)[O-]"
RESULT: 78.5 to 98 nm

###

- Test system: HT-29
- assay remarks: Antiproliferative activity against human HT-29 cells after 48 hrs by MTT assay
- Format: functional, cell-based
- reported conditions: HT-29, 48 h
pIC50: −log10 of the molar value.
measure: pIC50

QUERY: Please list pIC50 recorded for the compound "N=C(NCCC[C@H](NC(=O)c1cc2c(cn1)[nH]c1ccccc12)C(=O)OCc1ccccc1)N[N+](=O)[O-]"
RESULT: 4.13 to 4.82

###

- Test system: A549
- assay remarks: Antiproliferative activity against human A549 cells after 48 hrs by MTT assay
- Assay type: functional, cell-based
- reported conditions: A549, 48 h
pIC50: −log10 of the molar value.
measure: pIC50

QUERY: Fill in: pIC50 on A549, entry "N=C(NCCC[C@H](NC(=O)c1cc2c(cn1)[nH]c1ccccc12)C(=O)OCc1ccccc1)N[N+](=O)[O-]"
RESULT: 4.13 to 4.82
